- test.name: Plasma and brain CX157 concentrations after oral dosing in rats
- reported.conditions: male, Sprague-Dawley, rat, brain, po, 5 mg/kg
measurement.name: concentration at 24 h (ng/mL)
The answer is to be given in ng/mL; state only the numeric part.

Exam item: For the compound O=S1(=O)c2ccc(F)cc2Oc2cc(OCC(F)(F)F)ccc21 , report concentration at 24 h.
Marked response: 85.8

====

- test.name: Phase I 14-day twice-daily pharmacokinetics
- reported.conditions: human, plasma, oral, 10 mg, Cmax, healthy volunteers, 10 mg twice daily, Day 1, mean
- Experimental: Methods: The study was a Phase I, single-center, randomized, parallel-group, multiple-dose, placebo-controlled, pharmacodynamic, pharmacokinetic and safety study in healthy volunteers. To obtain 24 enrolled subjects, screening procedures and inclusion/exclusion criteria were evaluated for 54 subjects during a variable screening period of up to 28 days. Once enrolled, subjects were randomized to either CX157 10 mg, 20 mg or 40 mg or matching placebo administered twice daily for 14 consecutive days. […]
measurement.name: Cmax (ng/mL)
Quick reminder: number only, in ng/mL, skip the unit.

Exam item: Determine from records and report Cmax for O=S1(=O)c2ccc(F)cc2Oc2cc(OCC(F)(F)F)ccc21
Marked response: 18.1

====

- test.name: Phase 1 single dose escalation pharmacokinetics
- reported.conditions: male, human, plasma, po, 40 mg, AUC0-24, healthy males, single oral 40 mg, mean
- Method: Methods: The trial was a Phase 1, single center, double-blind, placebo-controlled, sequential group, acute dose escalation study of the safety and pharmacokinetics of seven (7) CX157 dose levels in healthy male volunteers. […] Safety and tolerability was assessed for each dose group by the Principal Investigator before advancing to the next scheduled dose group. […]
measurement.name: AUC(0-t) (µg·h/mL)
// units = µg·h/mL; emit number, no label

Exam item: Identify the reported AUC(0-t) for the following entry. O=S1(=O)c2ccc(F)cc2Oc2cc(OCC(F)(F)F)ccc21 [CX157]
Marked response: 0.291

====

- test.name: Phase 1 single dose escalation pharmacokinetics
- reported.conditions: male, human, plasma, po, 10 mg
measurement.name: concentration at 24 h
Please answer using the number first and the unit second.

Exam item: Kindly indicate its recorded concentration at 24 h. Item: O=S1(=O)c2ccc(F)cc2Oc2cc(OCC(F)(F)F)ccc21
Marked response: 0.37 ng/mL

====

- test.name: Plasma and brain CX157 concentrations after oral dosing in rats
- reported.conditions: male, Sprague-Dawley, rat, brain and plasma, po, 10 mg/kg, mean brain/plasma ratio of CX157 concentrations, 10 mg/kg oral, 8 h
measurement.name: Kp at 8 h
Lab note: jot the number down without any unit.

Exam item: Retrieve Kp at 8 h measured for O=S1(=O)c2ccc(F)cc2Oc2cc(OCC(F)(F)F)ccc21 and print it.
Marked response: 2.2

====

- test.name: Phase 1 single dose escalation pharmacokinetics
- reported.conditions: male, human, plasma, po, 80 mg
measurement.name: half-life

Exam item: Specify half-life for O=S1(=O)c2ccc(F)cc2Oc2cc(OCC(F)(F)F)ccc21 and stop.
Marked response: 15.3 h

====

- test.name: Phase 1 single dose escalation pharmacokinetics
- reported.conditions: male, human, plasma, po, 80 mg
measurement.name: Cmax (ng/mL)
Give the quantity in ng/mL, number only.

Exam item: Give a short answer stating reported Cmax for O=S1(=O)c2ccc(F)cc2Oc2cc(OCC(F)(F)F)ccc21 [CX157] .
Marked response: 245

====

- test.name: Phase 1 single dose escalation pharmacokinetics
- reported.conditions: male, human, plasma, po, 40 mg, AUC0-48, healthy males, single oral 40 mg, mean
measurement.name: AUC(0-t)
Entry format: amount then unit.

Exam item: Return AUC(0-t) for the following compound: O=S1(=O)c2ccc(F)cc2Oc2cc(OCC(F)(F)F)ccc21 [CX157]
Marked response: 309 ng·h/mL

====

- test.name: Plasma and brain CX157 concentrations after oral dosing in rats
- reported.conditions: male, Sprague-Dawley, rat, brain, po, 1 mg/kg
measurement.name: concentration at 2 h (ng/mL)
Give the value in ng/mL but do not write ng/mL after it.

Exam item: Name the recorded concentration at 2 h of the item O=S1(=O)c2ccc(F)cc2Oc2cc(OCC(F)(F)F)ccc21 in your answer.
Marked response: 103

====

- test.name: Phase I 14-day twice-daily pharmacokinetics
- reported.conditions: human, plasma, oral, 20 mg, Tmax, healthy volunteers, 20 mg twice daily, Day 1, median
measurement.name: Tmax (h)
// note: answer is a bare numeric in h

Exam item: Look up and report measured Tmax for this entry: O=S1(=O)c2ccc(F)cc2Oc2cc(OCC(F)(F)F)ccc21 [CX157]
Marked response: 1.25

====

- test.name: Phase I modified release tablets BID pharmacokinetics
- Format: in vivo, human
- reported.conditions: human, plasma, oral, 125 mg, MR tablets 125 mg BID, Day 7, mean; read-out: Cmax
measurement.name: Cmax
State the value with its unit after it.

Exam item: Provide only the value of recorded Cmax for O=S1(=O)c2ccc(F)cc2Oc2cc(OCC(F)(F)F)ccc21
Marked response: 231 ng/mL

====

- test.name: Phase I 14-day twice-daily pharmacokinetics
- reported.conditions: human, plasma, oral, 10 mg, AUC0-12h, healthy volunteers, 10 mg twice daily, Day 14, mean
measurement.name: AUC(0-t) (ng·h/mL)
Provide only the numeric value, understood in ng·h/mL.

Exam item: Name the recorded AUC(0-t) of the item O=S1(=O)c2ccc(F)cc2Oc2cc(OCC(F)(F)F)ccc21 in your answer.
Marked response: 97

====

- test.name: Plasma and brain CX157 concentrations after oral dosing in rats
- reported.conditions: male, Sprague-Dawley, rat, brain and plasma, po, 5 mg/kg, mean brain/plasma ratio of CX157 concentrations, 5 mg/kg oral, 2 h
measurement.name: Kp at 2 h
Reply: number alone, nothing else.

Exam item: Fill in reported Kp at 2 h for this entry: O=S1(=O)c2ccc(F)cc2Oc2cc(OCC(F)(F)F)ccc21 [CX157]
Marked response: 2.5

====

- test.name: Plasma and brain CX157 concentrations after oral dosing in rats
- reported.conditions: male, Sprague-Dawley, rat, brain, po, 10 mg/kg
measurement.name: concentration at 8 h (ng/mL)
The reply should contain only the number, in ng/mL.

Exam item: State its concentration at 8 h for this compound: O=S1(=O)c2ccc(F)cc2Oc2cc(OCC(F)(F)F)ccc21
Marked response: 540

====

- test.name: Phase I 14-day twice-daily pharmacokinetics
- reported.conditions: human, plasma, oral, 10 mg, C12h, healthy volunteers, 10 mg twice daily, Day 14, mean
measurement.name: concentration at 12 h (ng/mL)
Number only, in ng/mL; omit the unit.

Exam item: Return concentration at 12 h for the following compound: O=S1(=O)c2ccc(F)cc2Oc2cc(OCC(F)(F)F)ccc21 [CX157]
Marked response: 3

====

- test.name: Phase 1 single dose escalation pharmacokinetics
- reported.conditions: male, human, plasma, po, 5 mg
measurement.name: Cmax (ng/mL)
Respond with the bare value in ng/mL.

Exam item: Determine its reported Cmax: O=S1(=O)c2ccc(F)cc2Oc2cc(OCC(F)(F)F)ccc21
Marked response: 5.8

====

- test.name: Phase I 14-day twice-daily pharmacokinetics
- reported.conditions: human, plasma, oral, 20 mg, C12h, healthy volunteers, 20 mg twice daily, Day 1, mean
measurement.name: concentration at 12 h (ng/mL)
Numeric only. Scale: ng/mL

Exam item: Read the entry O=S1(=O)c2ccc(F)cc2Oc2cc(OCC(F)(F)F)ccc21 and write its reported concentration at 12 h.
Marked response: 1.13

====

- test.name: Plasma and brain CX157 concentrations after oral dosing in rats
- reported.conditions: male, Sprague-Dawley, rat, brain, po, 1 mg/kg
measurement.name: concentration at 0 h (ng/mL)
Form entry: value (ng/mL) — number only.

Exam item: Specify measured concentration at 0 h for O=S1(=O)c2ccc(F)cc2Oc2cc(OCC(F)(F)F)ccc21 .
Marked response: 0

====

- test.name: Phase 1 single dose escalation pharmacokinetics
- reported.conditions: male, human, plasma, po, 15 mg, AUC0-24, healthy males, single oral 15 mg, mean
- Description: Methods: The trial was a Phase 1, single center, double-blind, placebo-controlled, sequential group, acute dose escalation study of the safety and pharmacokinetics of seven (7) CX157 dose levels in healthy male volunteers. […] Safety and tolerability was assessed for each dose group by the Principal Investigator before advancing to the next scheduled dose group. […]
measurement.name: AUC(0-t)

Exam item: Look up and state reported AUC(0-t) for O=S1(=O)c2ccc(F)cc2Oc2cc(OCC(F)(F)F)ccc21 [CX157]
Marked response: 107 ng·h/mL

====

- test.name: Phase 1 single dose escalation pharmacokinetics
- reported.conditions: male, human, plasma, po, 15 mg
- Protocol: Methods: The trial was a Phase 1, single center, double-blind, placebo-controlled, sequential group, acute dose escalation study of the safety and pharmacokinetics of seven (7) CX157 dose levels in healthy male volunteers. […] Safety and tolerability was assessed for each dose group by the Principal Investigator before advancing to the next scheduled dose group. […]
measurement.name: Cmax (ng/mL)
Your answer should be a plain number; it is taken to be in ng/mL.

Exam item: Using known records, supply Cmax for O=S1(=O)c2ccc(F)cc2Oc2cc(OCC(F)(F)F)ccc21
Marked response: 42.2
